Tested on: PC-3
Assay: Cytotoxicity against human PC3 cells after 3 days by SRB assay
Format: functional, cell-based
Conditions: PC-3, 72 h
Binary call on EC50 with cut-off 3 µg/mL: strictly below means criterion met, and equality or higher means criterion not met.

STRUCTURE SMILES STRING: CC(C)Oc1cc(O)c(C(=O)/C=C/c2cccs2)cc1CN1CCOCC1
QUALITATIVE LABEL: criterion not met

Prompt: For this compound, is EC50 lower than 3 µg/mL? O=C(/C=C/c1ccccn1)c1ccc(O)c(CN2CCOCC2)c1O
Completion: criterion met

Prompt: For this compound, is EC50 lower than 3 µg/mL? O=C(/C=C/c1ccccn1)c1ccc(CN2CCOCC2)c(O)c1CN1CCOCC1
Completion: criterion met

Prompt: For this compound, is EC50 lower than 3 µg/mL? O=C(/C=C/c1ccccn1)c1cc(CN2CCOCC2)c(O)c(CN2CCOCC2)c1
Completion: criterion met

Prompt: For this compound, is EC50 lower than 3 µg/mL? O=C(/C=C/c1ccccn1)c1ccc(CN2CCOCC2)c(O)c1
Completion: criterion met

Prompt: For this compound, is EC50 lower than 3 µg/mL? Cc1ccsc1/C=C/C(=O)c1cc(CN2CCOCC2)c(O)c(CN2CCOCC2)c1
Completion: criterion not met

Prompt: For this compound, is EC50 lower than 3 µg/mL? COc1ccc(/C=C/C(=O)c2cc(CN3CCOCC3)c(OC)cc2O)cc1
Completion: criterion not met

Prompt: For this compound, is EC50 lower than 3 µg/mL? CCOc1cc(O)c(C(=O)/C=C/c2ccccc2)cc1CN1CCOCC1
Completion: criterion not met

Prompt: For this compound, is EC50 lower than 3 µg/mL? O=C(/C=C/c1ccncc1)c1ccc(CN2CCOCC2)c(O)c1
Completion: criterion met

These data points were gathered from ChEMBL document CHEMBL1155815.
